tested on: 786-0 renal; assay: NCI tumour cell line growth inhibition, 48 h; in the data active = GI50 below about 0.43 µM; inactive = the rest
Your answer must be one of the following: active, inactive

Hi team, can someone confirm the assay call for O=S(=O)(NCCNc1nccc(-c2c(-c3ccc(F)c(O)c3)nc3sccn23)n1)c1ccc(Cl)cc1 ?
inactive

Hi team, can someone confirm the assay call for COc1ccc(/C(C)=N/NC(=O)CSc2nc3ccccc3c(=O)n2CCc2ccc(S(N)(=O)=O)cc2)cc1 ?
inactive

Hi team, can someone confirm the assay call for COCCOCCOCc1n(Cc2ccc3ccccc3c2)c2ccccc2[n+]1Cc1ccc2ccccc2c1 ?
inactive

Hi team, can someone confirm the assay call for N#CC1=C(N)NC(=S)NC1c1ccc(-c2ccc(-c3nc4ccccc4o3)cc2)s1 (stereo not drawn) ?
inactive

Hi team, can someone confirm the assay call for CCCCCCCCCC[C@@H](O)[C@@H]1CC[C@@H]([C@@H]2CC[C@@H]([C@@H](O)CCCCCCCCCC[C@H](O)CC3=CC(C)OC3=O)O2)O1 (stereo partly drawn) ?
inactive

Hi team, can someone confirm the assay call for [N-]=[N+]=NCCCn1c2c(c3ccc([N+](=O)[O-])cc3c1=O)C(=O)c1cc3c(cc1-2)OCO3 ?
active

Hi team, can someone confirm the assay call for COc1cc(Cl)cc(-c2nn(-c3cccc(NC(=O)Nc4cccc(C(F)(F)F)c4)c3)cc2-c2ccncc2)c1 ?
inactive

Hi team, can someone confirm the assay call for N#Cc1cnc2cc(OC[C@@H](O)CO)c(NC(=O)C3CCCC3)cc2c1Nc1ccc(OCc2cccc(F)c2)c(Cl)c1 ?
inactive
